Entries and their rp, relative potency (IC50 (lactose)/IC50 (ligand)) values follow.
Tested On: Gal-4 (Homo sapiens)
Construct: made in house; host or cells: Escherichia coli Rosetta (DE3) pLysS
Sequence (P56470 whole entry): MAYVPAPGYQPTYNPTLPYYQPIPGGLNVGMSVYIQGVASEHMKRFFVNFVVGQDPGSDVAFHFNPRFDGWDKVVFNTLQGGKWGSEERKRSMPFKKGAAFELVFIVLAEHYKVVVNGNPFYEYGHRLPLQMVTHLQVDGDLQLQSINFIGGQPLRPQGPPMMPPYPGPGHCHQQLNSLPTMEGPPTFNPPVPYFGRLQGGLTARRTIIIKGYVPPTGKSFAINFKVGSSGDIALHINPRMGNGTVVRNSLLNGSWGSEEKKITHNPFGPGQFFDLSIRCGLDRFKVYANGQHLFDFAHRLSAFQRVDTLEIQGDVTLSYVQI
Assay Name: competitive ELISA, inhibition of binding of whole Gal-4 to immobilized ASF
Recorded Conditions: whole Gal-4
Measurement Kind: rp, relative potency (IC50 (lactose)/IC50 (ligand))

{"columns": ["Compound", "Meas Value"],
 "data": [
  ["OC[C@H]1O[C@@H](O[C@H]2[C@H](O)[C@@H](O)[C@H](O)O[C@@H]2CO)[C@H](O)[C@@H](O)[C@H]1O", 1.0],
  ["CC(=O)N[C@H]1[C@H](O[C@H]2[C@@H](O)[C@@H](CO)O[C@@H](O[C@H]3[C@H](O)[C@@H](O)C(O)O[C@@H]3CO)[C@@H]2O)O[C@H](CO)[C@@H](O)[C@@H]1O[C@@H]1O[C@H](CO)[C@H](O)[C@H](O)[C@H]1O (stereo partly drawn)", 5.9],
  ["CC(=O)N[C@H]1C(O)O[C@H](CO)[C@H](O)[C@@H]1O[C@@H]1O[C@H](CO)[C@H](O)[C@H](O)[C@H]1O (stereo partly drawn) [TF antigen motif (9)]", 2.1]
]}

These data points were gathered from paper PMC10223884.
